pIC50: −log10 of the molar value.
Quick note: these are pIC50 numbers for system: Rho-associated protein kinase 1 (Homo sapiens)
Sequence (Q13464 whole entry): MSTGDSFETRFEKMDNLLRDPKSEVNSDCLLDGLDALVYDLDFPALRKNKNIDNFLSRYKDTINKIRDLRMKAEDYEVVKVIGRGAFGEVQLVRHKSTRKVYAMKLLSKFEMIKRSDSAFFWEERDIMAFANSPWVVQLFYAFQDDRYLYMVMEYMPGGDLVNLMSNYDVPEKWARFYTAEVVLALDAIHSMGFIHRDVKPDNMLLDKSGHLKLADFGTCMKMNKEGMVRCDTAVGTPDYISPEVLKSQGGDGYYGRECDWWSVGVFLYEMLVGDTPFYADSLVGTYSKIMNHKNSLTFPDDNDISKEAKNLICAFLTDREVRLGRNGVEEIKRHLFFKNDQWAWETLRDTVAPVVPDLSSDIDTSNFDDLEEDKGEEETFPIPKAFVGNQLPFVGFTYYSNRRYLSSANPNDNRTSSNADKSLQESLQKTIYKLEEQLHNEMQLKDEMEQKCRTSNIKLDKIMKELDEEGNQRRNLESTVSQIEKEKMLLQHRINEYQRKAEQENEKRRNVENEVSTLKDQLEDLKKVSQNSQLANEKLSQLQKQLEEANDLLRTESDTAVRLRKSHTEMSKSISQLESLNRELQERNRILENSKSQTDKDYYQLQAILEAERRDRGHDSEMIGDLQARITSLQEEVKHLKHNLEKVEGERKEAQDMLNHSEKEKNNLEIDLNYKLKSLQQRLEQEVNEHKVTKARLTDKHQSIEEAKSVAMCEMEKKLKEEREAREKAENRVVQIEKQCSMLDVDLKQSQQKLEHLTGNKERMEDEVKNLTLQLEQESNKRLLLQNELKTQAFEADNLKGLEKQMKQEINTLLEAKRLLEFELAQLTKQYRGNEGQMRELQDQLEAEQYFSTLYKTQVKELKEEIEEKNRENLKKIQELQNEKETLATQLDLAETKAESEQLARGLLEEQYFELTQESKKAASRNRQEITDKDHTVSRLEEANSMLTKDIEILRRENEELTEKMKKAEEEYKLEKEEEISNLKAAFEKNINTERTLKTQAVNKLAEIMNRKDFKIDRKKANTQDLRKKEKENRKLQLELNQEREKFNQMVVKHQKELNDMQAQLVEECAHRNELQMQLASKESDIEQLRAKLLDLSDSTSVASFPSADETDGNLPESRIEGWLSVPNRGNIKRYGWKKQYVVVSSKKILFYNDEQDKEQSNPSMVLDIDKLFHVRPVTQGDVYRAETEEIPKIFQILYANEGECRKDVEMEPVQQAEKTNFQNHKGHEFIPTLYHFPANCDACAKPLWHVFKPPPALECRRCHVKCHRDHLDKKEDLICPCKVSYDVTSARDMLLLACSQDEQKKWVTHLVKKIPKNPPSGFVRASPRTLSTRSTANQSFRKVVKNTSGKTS
ATTRIBUTE MEASURED: pIC50

COMPOUND | ASSAY SYSTEM | TEST RESULT
NCC(C(=O)Nc1ccc2cnccc2c1)c1ccc(COC(=O)CCC(=O)O[C@@H]2CO[C@@H]3[C@H]2OC[C@@H]3O[N+](=O)[O-])cc1 (some centres undefined) | Rho-associated protein kinase 1 (Homo sapiens) | 7.54
NC[C@H](C(=O)Nc1ccc2cnccc2c1)c1ccc(COC(=O)c2cccc(CO[N+](=O)[O-])c2)cc1 | Rho-associated protein kinase 1 (Homo sapiens) | 7.45
CS(=O)(=O)O.CS(=O)(=O)O.NCC(C(=O)Nc1ccc2cnccc2c1)c1ccc(COC(=O)c2cccc(CO[N+](=O)[O-])c2)cc1 (centres undefined) | Rho-associated protein kinase 1 (Homo sapiens) | 8.60
CS(=O)(=O)O.CS(=O)(=O)O.NC[C@@H](C(=O)Nc1ccc2cnccc2c1)c1ccc(COC(=O)c2cccc(CO[N+](=O)[O-])c2)cc1 | Rho-associated protein kinase 1 (Homo sapiens) | 8.90

Reference for the values: ChEMBL document CHEMBL5614405
